Target or system Jarid1A (Homo sapiens (Human), UniProt P29375): recorded IC50 listed per item.

Solved cases below.
molecule=C#Cc1ccc(-c2c(-c3cc(C(=O)O)ccn3)ncn2C)cc1 observed="≤ 100 nM"
molecule=CCN(CCn1cnc(-c2cc(C(=O)O)ccn2)c1)Cc1ccc(F)cc1 observed="≤ 100 nM"
molecule=Cc1ccc(-c2c(-c3cc(C(=O)O)ccn3)ncn2C)cc1 observed="≤ 100 nM"
molecule=Cn1cnc(-c2cc(C(=O)O)ccn2)c1-c1ccc(Cl)cc1 observed="≤ 100 nM"
molecule=O=C(O)c1ccnc(-c2cn(CCN3CCCC3=O)cn2)c1 observed="≤ 100 nM"

Inquiry: Query: IC50; subject: CC(Cn1cnc(-c2cc(C(=O)O)ccn2)c1)N1CCCC1 (centres unmarked)
Reply text: ≤ 100 nM

Inquiry: Query: IC50; subject: O=C(O)c1ccnc(-c2cn(CCNCc3ccccc3C(F)(F)F)cn2)c1
Reply text: ≤ 100 nM

----------
Target or system FBXL10 (Homo sapiens (Human)): recorded pIC50 listed per item.
pIC50: −log10 of the molar value.

molecule="Cn1cnc(-c2cc(C(=O)O)ccn2)c1-c1cccc(F)c1 [Example 24]" reported_endpoint=pIC50 observed="≥ 7.00"
molecule="O=C(O)c1ccnc(-c2cn(CCC3CCCCC3)cn2)c1 [Example 114]" reported_endpoint=pIC50 observed="≥ 7.00"
molecule="CCOc1cc(Cl)ccc1-c1c(-c2cc(C(=O)O)ccn2)ncn1C [Example 32]" reported_endpoint=pIC50 observed="6.00 to 7.00"
molecule="CN1CCC(n2cnc(-c3cc(C(=O)O)ccn3)c2)CC1 [Example 49]" reported_endpoint=pIC50 observed="6.00 to 7.00"
molecule="O=C(O)c1ccnc(-c2cn(CCn3cccn3)cn2)c1 [Example 46]" reported_endpoint=pIC50 observed="6.00 to 7.00"
molecule="O=C(O)c1ccnc(-c2cn(C3CCc4c(F)cccc43)cn2)c1 (stereo not shown) [Example 110]" reported_endpoint=pIC50 observed="≥ 7.00"
molecule="O=C(O)c1ccnc(-c2cn(Cc3ccccc3)cn2)c1 [Example 100]" reported_endpoint=pIC50 observed="≥ 7.00"
molecule="O=C(O)c1ccnc(-c2cn(CC3CCCCC3)cn2)c1 [Example 115]" reported_endpoint=pIC50 observed="≥ 7.00"

Inquiry: Recorded pIC50 for CCc1ccccc1CNCCn1cnc(-c2cc(C(=O)O)ccn2)c1 [Example 80] with FBXL10 (Homo sapiens (Human)), please?
Reply text: ≥ 7.00

----------
Target or system FBXL10 (Homo sapiens (Human), UniProt Q8NHM5): recorded IC50 listed per item.

Solved cases below.
compound="O=C(O)c1ccnc(-c2ncn(CC3CC3)c2-c2ccc(F)cc2)c1 [Example 125]" tested_on="FBXL10 (Homo sapiens (Human), UniProt Q8NHM5)" observed="≤ 100 nM"
compound="Cn1cnc(-c2cc(-c3nn[nH]n3)ccn2)c1-c1ccc(F)cc1OCC1CC1 [Example 150]" tested_on="FBXL10 (Homo sapiens (Human), UniProt Q8NHM5)" observed="≤ 100 nM"
compound="Cn1cnc(-c2cc(C(=O)O)ccn2)c1-c1ccc2cc[nH]c2c1 [Example 22]" tested_on="FBXL10 (Homo sapiens (Human), UniProt Q8NHM5)" observed="≤ 100 nM"
compound="O=C(O)c1ccnc(-c2cn(CCN3Cc4ccc(F)cc4C3)cn2)c1 [Example 79]" tested_on="FBXL10 (Homo sapiens (Human), UniProt Q8NHM5)" observed="≤ 100 nM"
compound="c1ccc2c(c1)CCCC2Cn1cnc(-c2cc(-c3nn[nH]n3)ccn2)c1 (stereo not shown) [Example 143]" tested_on="FBXL10 (Homo sapiens (Human), UniProt Q8NHM5)" observed="≤ 100 nM"

Inquiry: Recorded IC50 for Cn1nnc(-c2ccnc(-c3cn(Cc4ccccc4Cl)cn3)c2)n1 [Example 165] with FBXL10 (Homo sapiens (Human), UniProt Q8NHM5), please?
Reply text: 1000 to 10000 nM

The reported numbers originate from patent US10273222B2.
